FYI, the data here is from paper PMC8472287.

Test system: MRC-5
Assay: MTS cytotoxicity assay, MRC-5
Assay type: cell-based
Conditions: Homo sapiens, MRC5, 72 h, MRC-5 normal fibroblasts, 3-day incubation
Procedure: All cells (if not indicated otherwise) were purchased from the American Tissue Culture Collection (ATCC; Manassas, VA, USA). […] To perform the cytotoxicity MTS assay, cell suspensions were prepared and diluted according to the cell type and the expected target cell density (25,000–35,000 cells/mL) based on cell growth characteristics. […] After this incubation period, the optical density (OD) was measured at 490 nm with an Envision microplate reader (Perkin Elmer, Waltham, Massachusetts, USA). […]
pIC50: −log10 of the molar value.
What pIC50 was measured for each of the following?

Sample records with pIC50:
molecule: C=C(C)[C@@H]1CC[C@]2(C(=O)O)CC[C@]3(C)[C@H](CC[C@@H]4[C@@]5(C)CC[C@H](O)C(C)(C)[C@@H]5CC[C@]43C)[C@@H]12
assay.target: MRC-5
pIC50: < 4.30
--
molecule: C=C(C)[C@@H]1CC[C@]2(C(=O)NCCCN)CC[C@]3(C)[C@H](CC[C@@H]4[C@@]5(C)CC[C@H](OC(=O)CCNC6=C7C=CC=[N+]7[B-](F)(F)n7cccc76)C(C)(C)[C@@H]5CC[C@]43C)[C@@H]12
assay.target: MRC-5
pIC50: 5.09

Next, consider the following molecule.
Prompt line: Kindly state the measured pIC50 obtained for C=C(C)[C@@H]1CC[C@]2(C(=O)O)CC[C@]3(C)[C@H](CC[C@@H]4[C@@]5(C)CC[C@H](OC(=O)CC(C)(C)C(=O)O)C(C)(C)[C@@H]5CC[C@]43C)[C@@H]12 [BT, reference compound] with MRC-5.
Response line: < 4.30

* * *

tested on: VSV-G pseudotyped HIV-1 particles; test: microbe, parasite or virus in culture; type: cell-based; conditions: read-out: IC50i (50% infection inhibition)
test.readout: IC50

Sample records with IC50:
mol: C=C(C)[C@@H]1CC[C@]2(C(=O)N3CCN(CCN)CC3)CC[C@]3(C)[C@H](CC[C@@H]4[C@@]5(C)CC[C@H](OC(=O)CC(C)(C)C(=O)O)C(C)(C)[C@@H]5CC[C@]43C)[C@@H]12
IC50: 7.6 µM

mol: C=C(C)[C@@H]1CC[C@]2(C(=O)N3CCN(CCNC4=C5C=CC=[N+]5[B-](F)(F)n5cccc54)CC3)CC[C@]3(C)[C@H](CC[C@@H]4[C@@]5(C)CC[C@H](OC(=O)CC(C)(C)C(=O)O)C(C)(C)[C@@H]5CC[C@]43C)[C@@H]12
IC50: 7.1 µM

mol: C=C(C)[C@@H]1CC[C@]2(C(=O)N3CCN(CCNC(=O)OC(C)(C)C)CC3)CC[C@]3(C)[C@H](CC[C@@H]4[C@@]5(C)CC[C@H](OC(=O)CC(C)(C)C(=O)O)C(C)(C)[C@@H]5CC[C@]43C)[C@@H]12
IC50: 9.1 µM

Next, consider the following molecule.
Prompt line: Fill in: IC50 of C=C(C)[C@@H]1CC[C@]2(C(=O)NCCCNC3=C4C=CC=[N+]4[B-](F)(F)n4cccc43)CC[C@]3(C)[C@H](CC[C@@H]4[C@@]5(C)CC[C@H](OC(=O)CC(C)(C)C(=O)O)C(C)(C)[C@@H]5CC[C@]43C)[C@@H]12 is ___
Response line: 8.4 µM

* * *

System: HCT116
Experiment: MTS cytotoxicity assay, HCT116
Format: cell-based
Conditions: Homo sapiens, HCT-116, 72 h, 3-day incubation
Procedure: All cells (if not indicated otherwise) were purchased from the American Tissue Culture Collection (ATCC; Manassas, VA, USA). […] To perform the cytotoxicity MTS assay, cell suspensions were prepared and diluted according to the cell type and the expected target cell density (25,000–35,000 cells/mL) based on cell growth characteristics. […] After this incubation period, the optical density (OD) was measured at 490 nm with an Envision microplate reader (Perkin Elmer, Waltham, Massachusetts, USA). […]
What pIC50 was measured for each of the following?
One number for each entry, as −log10 of the molar value.

compound: C=C(C)[C@@H]1CC[C@]2(C(=O)NCCCN=[N+]=[N-])CC[C@]3(C)[C@H](CC[C@@H]4[C@@]5(C)CC[C@H](OC(=O)CC(C)(C)C(=O)O)C(C)(C)[C@@H]5CC[C@]43C)[C@@H]12 [Compound 2]
pIC50: 4.71

Next, consider the following compound.
Prompt line: Kindly state the measured pIC50 obtained for C=C(C)[C@@H]1CC[C@]2(C(=O)N3CCN(CCN)CC3)CC[C@]3(C)[C@H](CC[C@@H]4[C@@]5(C)CC[C@H](O)C(C)(C)[C@@H]5CC[C@]43C)[C@@H]12 [Compound 14] with HCT116.
Response line: 6.41

* * *

test system: HCT116; assay: MTS cytotoxicity assay, HCT116; format: cell-based; settings: Homo sapiens, HCT-116, 72 h, 3-day incubation
What IC50 was measured for each of the following?

Sample records with IC50:
mol: C=C(C)[C@@H]1CC[C@]2(C(=O)N3CCN(CCNC(=O)OC(C)(C)C)CC3)CC[C@]3(C)[C@H](CC[C@@H]4[C@@]5(C)CC[C@H](O)C(C)(C)[C@@H]5CC[C@]43C)[C@@H]12
assay.target: HCT116
IC50: 6.02 µM
--
mol: C=C(C)[C@@H]1CC[C@]2(C(=O)NCCCNC3=C4C=CC=[N+]4[B-](F)(F)n4cccc43)CC[C@]3(C)[C@H](CC[C@@H]4[C@@]5(C)CC[C@H](OC(=O)CC(C)(C)C(=O)O)C(C)(C)[C@@H]5CC[C@]43C)[C@@H]12
assay.target: HCT116
IC50: 7.92 µM
--
mol: C=C(C)[C@@H]1CC[C@]2(C(=O)NCCCNC3=C4C=CC=[N+]4[B-](F)(F)n4cccc43)CC[C@]3(C)[C@H](CC[C@@H]4[C@@]5(C)CC[C@H](O)C(C)(C)[C@@H]5CC[C@]43C)[C@@H]12
assay.target: HCT116
IC50: > 50 µM

Please give IC50, item by item, for the list that follows.
1. C=C(C)[C@@H]1CC[C@]2(C(=O)NCCCN)CC[C@]3(C)[C@H](CC[C@@H]4[C@@]5(C)CC[C@H](O)C(C)(C)[C@@H]5CC[C@]43C)[C@@H]12
2. C=C(C)[C@@H]1CC[C@]2(C(=O)N3CCN(CCNC(=O)OC(C)(C)C)CC3)CC[C@]3(C)[C@H](CC[C@@H]4[C@@]5(C)CC[C@H](OC(=O)CC(C)(C)C(=O)O)C(C)(C)[C@@H]5CC[C@]43C)[C@@H]12
3. C=C(C)[C@@H]1CC[C@]2(C(=O)N3CCN(CCNC4=C5C=CC=[N+]5[B-](F)(F)n5cccc54)CC3)CC[C@]3(C)[C@H](CC[C@@H]4[C@@]5(C)CC[C@H](OC(=O)CC(C)(C)C(=O)O)C(C)(C)[C@@H]5CC[C@]43C)[C@@H]12
4. C=C(C)[C@@H]1CC[C@]2(C(=O)N3CCN(CCNC(=O)OC(C)(C)C)CC3)CC[C@]3(C)[C@H](CC[C@@H]4[C@@]5(C)CC[C@H](OC(C)=O)C(C)(C)[C@@H]5CC[C@]43C)[C@@H]12
5. C=C(C)[C@@H]1CC[C@]2(C(=O)NCCCN)CC[C@]3(C)[C@H](CC[C@@H]4[C@@]5(C)CC[C@H](OC(=O)CCNC6=C7C=CC=[N+]7[B-](F)(F)n7cccc76)C(C)(C)[C@@H]5CC[C@]43C)[C@@H]12
6. C=C(C)[C@@H]1CC[C@]2(C(=O)NCCCNC(=O)OC(C)(C)C)CC[C@]3(C)[C@H](CC[C@@H]4[C@@]5(C)CC[C@H](O)C(C)(C)[C@@H]5CC[C@]43C)[C@@H]12

Response line:
0.82 µM
46.6 µM
30.8 µM
> 50 µM
3.85 µM
> 50 µM

* * *

experiment: in vitro; conditions: human
test.readout: IC50

Sample records with IC50:
compound: C=C(C)[C@@H]1CC[C@]2(C(=O)N3CCN(CCNC(=O)OC(C)(C)C)CC3)CC[C@]3(C)[C@H](CC[C@@H]4[C@@]5(C)CC[C@H](OC(=O)CC(C)(C)C(=O)O)C(C)(C)[C@@H]5CC[C@]43C)[C@@H]12 [Compound 16]
IC50: > 40 µM
//
compound: C=C(C)[C@@H]1CC[C@]2(C(=O)NCCCNC3=C4C=CC=[N+]4[B-](F)(F)n4cccc43)CC[C@]3(C)[C@H](CC[C@@H]4[C@@]5(C)CC[C@H](OC(=O)CC(C)(C)C(=O)O)C(C)(C)[C@@H]5CC[C@]43C)[C@@H]12 [Compound 10]
IC50: > 40 µM
//
compound: C=C(C)[C@@H]1CC[C@]2(C(=O)N3CCN(CCNC4=C5C=CC=[N+]5[B-](F)(F)n5cccc54)CC3)CC[C@]3(C)[C@H](CC[C@@H]4[C@@]5(C)CC[C@H](OC(=O)CC(C)(C)C(=O)O)C(C)(C)[C@@H]5CC[C@]43C)[C@@H]12 [Compound 18]
IC50: > 40 µM
//
compound: C=C(C)[C@@H]1CC[C@]2(C(=O)N3CCN(CCNC(=O)OC(C)(C)C)CC3)CC[C@]3(C)[C@H](CC[C@@H]4[C@@]5(C)CC[C@H](OC(C)=O)C(C)(C)[C@@H]5CC[C@]43C)[C@@H]12 [Compound 12]
IC50: > 40 µM

Please give IC50, item by item, for the list that follows.
1. C=C(C)[C@@H]1CC[C@]2(C(=O)N3CCN(CCNC(=O)OC(C)(C)C)CC3)CC[C@]3(C)[C@H](CC[C@@H]4[C@@]5(C)CC[C@H](O)C(C)(C)[C@@H]5CC[C@]43C)[C@@H]12 [Compound 13]
2. C=C(C)[C@@H]1CC[C@]2(C(=O)NCCCN=[N+]=[N-])CC[C@]3(C)[C@H](CC[C@@H]4[C@@]5(C)CC[C@H](OC(=O)CC(C)(C)C(=O)O)C(C)(C)[C@@H]5CC[C@]43C)[C@@H]12 [Compound 2]
3. C=C(C)[C@@H]1CC[C@]2(C(=O)NCCCN=[N+]=[N-])CC[C@]3(C)[C@H](CC[C@@H]4[C@@]5(C)CC[C@H](OC(=O)CCNC6=C7C=CC=[N+]7[B-](F)(F)n7cccc76)C(C)(C)[C@@H]5CC[C@]43C)[C@@H]12 [Compound 5]
4. C=C(C)[C@@H]1CC[C@]2(C(=O)NCCCN)CC[C@]3(C)[C@H](CC[C@@H]4[C@@]5(C)CC[C@H](OC(=O)CCNC6=C7C=CC=[N+]7[B-](F)(F)n7cccc76)C(C)(C)[C@@H]5CC[C@]43C)[C@@H]12 [Compound 6]
5. C=C(C)[C@@H]1CC[C@]2(C(=O)NCCCNC3=C4C=CC=[N+]4[B-](F)(F)n4cccc43)CC[C@]3(C)[C@H](CC[C@@H]4[C@@]5(C)CC[C@H](O)C(C)(C)[C@@H]5CC[C@]43C)[C@@H]12 [Compound 4]
6. C=C(C)[C@@H]1CC[C@]2(C(=O)NCCCNC(=O)OC(C)(C)C)CC[C@]3(C)[C@H](CC[C@@H]4[C@@]5(C)CC[C@H](O)C(C)(C)[C@@H]5CC[C@]43C)[C@@H]12 [Compound 7]

Response line:
1. > 40 µM
2. 36.4 µM
3. > 40 µM
4. 12 µM
5. > 40 µM
6. > 40 µM
